Hello, the source for this data is patent US8664223B2, in case you need it.

This section presents molecules with their documented Enzymatic activity pIC50 C.1 values.
biological target: histone deacetylase (HeLa nuclear extracts); assay: In vitro assay for inhibition of histone deacetylase with fluorescent-labelled substrate (Fluor de Lys); type: biochemical; conditions: HeLa nuclear extracts 60 μg/ml, 75 μM substrate
measured endpoint: Enzymatic activity pIC50 C.1

> print(dat)
                                   molecule             measured.endpoint  reading
1  CS(=O)(=O)NC(/C=C/c1ccc(F)cc1)CN1CCN(c2ccc(C(=O)NO)cn2)CC1 (centres unmarked) [Compound 6]  Enzymatic activity pIC50 C.1      7.0
2  O=C(NO)c1cnc(N2CCN(CC(/C=C/c3ccccc3)Oc3ccc(F)cc3)CC2)nc1 (centres unmarked) [Compound 4]  Enzymatic activity pIC50 C.1      7.3
3  CC(=O)NC(/C=C/c1ccccc1)CN1CCN(c2ncc(C(=O)NO)cn2)CC1 (centres unmarked) [Compound 1]  Enzymatic activity pIC50 C.1      8.2
4  NC(/C=C/c1ccccc1)CN1CCN(c2ncc(C(=O)NO)cn2)CC1 (centres unmarked) [Compound 2]  Enzymatic activity pIC50 C.1      8.2
5  O=C(NO)c1cnc(N2CCN(CC(/C=C/c3ccccc3)N3C(=O)CCC3=O)CC2)nc1 (centres unmarked) [Compound 3]  Enzymatic activity pIC50 C.1      7.5
